# assay: small-molecule microarray binders of probe aNog, primary screen, biochemical, biotinylated probe, 635/667 nm fluorescence (AID 1115);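 note: probe is biotinylated aNog protein used at 0.15 µg/mL for 1 h at 4 C; z-score combines 667 nm fluorescence of each spot with its signal to noise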
# run-conditions: higher = more signal
Values of composite z-score greater than or equal to -0.05 map to Fulfilled; values below map to Not fulfilled.

{"compound": "COC(=O)[C@@]1(Cc2ccc(F)cc2)[C@H]2c3cc(C(=O)N4CCCC4)n(CCc4c[nH]c5ccc(OC)cc45)c3C[C@H]2CN1C(=O)c1ccccc1", "assigned-class": "Fulfilled"}
{"compound": "CN(C)CCCNC(=O)[C@@H]1c2ccccc2C(=O)N(CC23CC4CC(CC(C4)C2)C3)[C@H]1c1ccc(CO)cc1", "assigned-class": "Not fulfilled"}
{"compound": "COC(=O)[C@@]1(Cc2ccc(OC)cc2)[C@H]2c3cc(C(=O)N(C)C)n(Cc4ccccc4)c3C[C@H]2CN1C(=O)c1ccccc1", "assigned-class": "Not fulfilled"}
{"compound": "CC(C)N1CC=CC23O[C@@H]4C=CCCOC(=O)C4[C@H]2C(=O)N(CCO)[C@@H]3C1=O (some centres undefined)", "assigned-class": "Not fulfilled"}
{"compound": "CCCC=C(CCC)[C@@H](NP(=O)(c1ccccc1)c1ccccc1)c1ccc(C(F)(F)F)cc1", "assigned-class": "Not fulfilled"}
{"compound": "O=C1NC(=O)C2C1C=CC(C(O)c1ccc3c(c1)OCO3)N2Nc1ccccn1 (centres undefined)", "assigned-class": "Fulfilled"}
{"compound": "CCOC(=O)C[C@H]1[C@H](OC(=O)c2ccc(-c3ccccc3)cc2)[C@@H](NC(=O)C2CCCCC2)c2cc(OCCCO)ccc2N1C(=O)c1ccccc1", "assigned-class": "Not fulfilled"}
{"compound": "CC(C)(C)N1CC=CC23O[C@@H]4C=CCOC(=O)[C@@H]4[C@H]2C(=O)N(CCCO)[C@@H]3C1=O (some centres undefined)", "assigned-class": "Not fulfilled"}
{"compound": "C=CCNC(=O)[C@@H]1[C@H]2C(=O)O[C@H](c3ccccc3)[C@H](c3ccccc3)N2[C@H](c2ccc(OCCO)cc2)[C@@]12C(=O)N(C(=O)OCCOC)c1ccc(C#CC3=CCCCC3)cc12", "assigned-class": "Not fulfilled"}
{"compound": "COCCCNC(=O)[C@@]1(Sc2ccc(C)cc2)CC(=O)N(Cc2cc(C(F)(F)F)cc(C(F)(F)F)c2)[C@@H]1c1ccc(CO)cc1", "assigned-class": "Fulfilled"}
{"compound": "COCCOC(=O)N1C(=O)[C@@]2(c3cc(C#CC4(O)CCCCCC4)ccc31)[C@H](C(=O)N1CCCCCCC1)[C@H]1C(=O)O[C@H](c3ccccc3)[C@H](c3ccccc3)N1[C@@H]2c1ccc(OCCO)cc1", "assigned-class": "Fulfilled"}
{"compound": "[N-]=[N+]=Nc1ccccc1[C@H]1OC(c2ccc(OCCCO)cc2)=N[C@@]1(CCS(=O)(=O)c1ccccc1)C(=O)N1CCCCC1", "assigned-class": "Fulfilled"}
{"compound": "C[C@@H]1ON(c2ccc(C(=O)OC(C)(C)C)cc2)[C@H](c2ccc(Br)cc2)[C@H]1C(=O)N1C(=O)OC[C@H]1Cc1ccccc1", "assigned-class": "Fulfilled"}
{"compound": "COc1cc2c(cc1OC)CN(C(=O)[C@H]1[C@@H]3C(=O)O[C@@H](c4ccccc4)[C@@H](c4ccccc4)N3[C@@H](c3ccc(OCCO)cc3)[C@]13C(=O)Nc1ccc(C#CCCO)cc13)CC2", "assigned-class": "Fulfilled"}
{"compound": "CC(C)C(CO)N1C(=O)[C@]2(C)C3C(=O)OCCC/C=C\\[C@H]3OC23C=CCN(c2ccc(Cl)cc2)C(=O)[C@@H]13 (some centres undefined)", "assigned-class": "Fulfilled"}
{"compound": "NC(=O)NCC#Cc1ccc2c(c1)[C@]1(C(=O)N2)[C@H](C(=O)Nc2nc3ccccc3s2)[C@H]2C(=O)O[C@H](c3ccccc3)[C@H](c3ccccc3)N2[C@@H]1c1ccc(O)cc1", "assigned-class": "Fulfilled"}
{"compound": "COc1cc(CO)cc(I)c1O[C@H]1C=C(C(=O)NCCO)C[C@@H](NCc2ccccc2F)[C@@H]1O", "assigned-class": "Not fulfilled"}
{"compound": "CC(C)(C)OC(=O)CC[C@]1(C(=O)O)N=C(c2ccc(OCCCO)cc2)O[C@H]1c1ccccc1", "assigned-class": "Not fulfilled"}
{"compound": "COc1ccc([Si](C)(C)[C@H]2[C@H](CCO)O[C@@]3(C(=O)N(Cc4cccc(N5CCCCC5=O)c4)c4ccccc43)[C@@H]2C)cc1", "assigned-class": "Fulfilled"}
{"compound": "[N-]=[N+]=Nc1ccccc1[C@@H]1OC(c2ccc(OCCCO)cc2)=N[C@]1(CCS(=O)(=O)c1ccccc1)C(=O)NCCN1CCOCC1", "assigned-class": "Fulfilled"}
{"compound": "CC(=O)NCCCC[C@@H]1NC(=O)[C@@H]2C[C@H](C(=O)O)[C@H](c3ccc(O)cc3)N2C1=O", "assigned-class": "Not fulfilled"}
{"compound": "CCCc1cccc(=O)o1", "assigned-class": "Fulfilled"}
{"compound": "CCOc1cc(C(O)C2C=CC3C(=O)N(C)C(=O)C3N2N2CCCCC2)ccc1O (centres undefined)", "assigned-class": "Fulfilled"}
{"compound": "CCOC(=CC(=O)OC)CC(O)c1cccc(Cl)c1 (centres undefined)", "assigned-class": "Not fulfilled"}
{"compound": "COC(=O)C(CC#Cc1ccc2c(c1)[C@]1(C(=O)N2)[C@H](C(=O)O)[C@H]2C(=O)O[C@H](c3ccccc3)[C@H](c3ccccc3)N2[C@@H]1c1ccccc1OCCO)C(=O)OC", "assigned-class": "Fulfilled"}
{"compound": "C[C@@H](OCc1ccccc1)C1NC(=O)[C@@]23C(=O)N[C@@H](Cc4ccccc4)C2[C@H](C)[C@@]2(C)O[C@H]2C3/C=C/C/C=C\\CNC(=O)CNC1=O (some centres undefined)", "assigned-class": "Not fulfilled"}
{"compound": "NC(=O)N1C(=O)C2C(C1=O)C1C=C(CCCO)C2C(c2cccs2)N1Cc1cc2c(cc1Br)OCO2 (centres undefined)", "assigned-class": "Fulfilled"}
{"compound": "CC(C)C(=C=CC[C@H](O)c1ccc(OCCO)cc1)C[C@H](O)c1cc(Cl)cc(Cl)c1O", "assigned-class": "Fulfilled"}
